These data points were gathered from patent US20240228660A1.

target: human full-length VWF (human, UniProt P04275 764-2813); experiment: SPR, Biacore T200, antibody captured on Protein A, full-length VWF as analyte, single-cycle kinetics
Recorded koff for the following binders
Respond numerically; units are s⁻¹ and should not be typed.

Examples with their reported koff follow.
1-A2_H1_L0 (antibody, human IgG1, kappa, V domains shown, humanised, human IgG1 kappa) VH: QVQLVESGGGVVQPGRSLRLSCAASGIDLTSNAMNWVRQAPGKGLEWVAGIYGHDTSYYAAWAKGRFTISRDNSKNTLYLQMNSLRAEDTAVYYCARGFIYFDIWGQGTLVTVSS VL: DIQMTQSPSSLSASVGDRVTITCLASEDIYSGISWYQQKPGKAPKLLIYGASNLESGVPSRFSGSGSGTDFTLTISSLQPEDFATYYCLGGHSHSTTDLTFGGGTKVEIKT | 6.54e-07
4-H3_H8_L1 (antibody, human IgG1, kappa, V domains shown, humanised, human IgG1 kappa) VH: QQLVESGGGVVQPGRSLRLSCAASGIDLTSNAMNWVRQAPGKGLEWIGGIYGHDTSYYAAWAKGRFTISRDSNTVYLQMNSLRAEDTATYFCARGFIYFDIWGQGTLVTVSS VL: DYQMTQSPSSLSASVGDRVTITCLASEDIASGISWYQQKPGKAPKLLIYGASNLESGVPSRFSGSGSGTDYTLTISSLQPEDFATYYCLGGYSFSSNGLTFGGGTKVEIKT | 9.15e-07

Per the record, 1-A2_H1_L1 (antibody, human IgG1, kappa, V domains shown, humanised, human IgG1 kappa) VH: QVQLVESGGGVVQPGRSLRLSCAASGIDLTSNAMNWVRQAPGKGLEWVAGIYGHDTSYYAAWAKGRFTISRDNSKNTLYLQMNSLRAEDTAVYYCARGFIYFDIWGQGTLVTVSS VL: DIQMTQSPSSLSASVGDRVTITCLASEDIYSGISWYQQKPGKAPKLLIYGASNLESGVPSRFSGSGSGTDYTLTISSLQPEDFATYYCLGGHSHSTTDLTFGGGTKVEIKT has koff of 1.4e-07
